test system: NCI-H358 human non-small cell lung cancer; experiment: NCI-H358 CCK-8 proliferation assay; format: cell-based; conditions: NCI-H358 cells, 72 hr
pEC50: −log10 of the molar value.
For each of the compounds below, state its pEC50.

Notebook entry, NCI-H358 human non-small cell lung cancer assay: pEC50 of CCC(=O)N1CCN(c2nc(NCCC(=O)NCCOCCOc3ccc(-n4c(O)nnc4-c4cc(C(C)C)c(O)cc4O)cc3)nc3c2CCN(c2cc(O)cc4ccccc24)C3)CC1 = ? < 6.00

Notebook entry, NCI-H358 human non-small cell lung cancer assay: pEC50 of C=CC(=O)N1CCN(c2nc(NCCC(=O)N3CCC(CN4CCN(Cc5ccc(-n6c(C(=O)NCC(F)(F)F)nnc6-c6cc(CC)c(O)cc6O)cc5)CC4)CC3)nc3c2CCN(c2cccc4cccc(Cl)c24)C3)C[C@H]1CC#N = ? 6.00 to 7.00

Notebook entry, NCI-H358 human non-small cell lung cancer assay: pEC50 of C=CC(=O)N1CCN(c2nc(NCCC(=O)N3CCN(Cc4ccc(CN(C)Cc5ccc(-n6c(C(=O)NCC(F)(F)F)nnc6-c6cc(C(C)C)c(O)cc6O)cc5)cc4)CC3)nc3c2CCN(c2cccc4ccccc24)C3)C[C@H]1CC#N = ? 6.00 to 7.00

Notebook entry, NCI-H358 human non-small cell lung cancer assay: pEC50 of CC(=O)N1CCN(c2nc(NCCC(=O)NCc3ccc(CN4CCC(Cc5ccc(-n6c(C(=O)NCC(F)(F)F)nnc6-c6cc(C(C)C)c(O)cc6O)cc5)CC4)cc3)nc3c2CCN(c2cc(O)cc4ccccc24)C3)CC1 = ? 6.00 to 7.00

Notebook entry, NCI-H358 human non-small cell lung cancer assay: pEC50 of CCC(=O)N1CCN(c2nc(=O)n(-c3ccc(C(=O)NCCOCCOc4ccc(-n5c(O)nnc5-c5cc(C(C)C)c(O)cc5O)cc4)nc3)c3nc(-c4c(O)cccc4F)c(F)cc23)[C@@H](C)C1 = ? < 6.00

Notebook entry, NCI-H358 human non-small cell lung cancer assay: pEC50 of CCC(=O)N1CCN(c2nc(NCCC(=O)N[C@H](C)c3ccc(CN4CCC(Cc5ccc(-n6c(O)nnc6-c6cc(C(C)C)c(O)cc6O)cc5)CC4)cc3)nc3c2CCN(c2cc(O)cc4ccccc24)C3)CC1 = ? 6.00 to 7.00

Notebook entry, NCI-H358 human non-small cell lung cancer assay: pEC50 of C=CC(=O)N1CCN(c2nc(NCCC(=O)N3CCC(CN4CCN(Cc5ccc(-n6c(C(=O)NCC(F)(F)F)nnc6-c6cc(C)c(O)cc6O)cc5)CC4)CC3)nc3c2CCN(c2cc(O)cc4ccccc24)C3)CC1 = ? 6.00 to 7.00

Notebook entry, NCI-H358 human non-small cell lung cancer assay: pEC50 of C=C(F)C(=O)N1CCN(c2nc(OC[C@@H]3CCN(C(=O)C4CCN(Cc5ccc(-n6c(O)nnc6-c6cc(C(C)C)c(O)cc6O)cc5)CC4)C3)nc3c2CCN(c2cccc4cccc(Cl)c24)C3)C[C@@H]1CC#N = ? 6.00 to 7.00

Notebook entry, NCI-H358 human non-small cell lung cancer assay: pEC50 of C=CC(=O)N1CCN(c2nc(NCCC(=O)N3CCN(c4ccc(-n5c(O)nnc5-c5cc(C(C)C)c(O)cc5O)cc4)CC3)nc3c2CCN(c2cccc4ccccc24)C3)C[C@H]1CC#N = ? < 6.00

* * *

biological target: KRAS(G12C) (Homo sapiens, UniProt P01116, G12C); experiment: KRAS(G12C)/SOS1 homogeneous time-resolved fluorescence (HTRF) assay; details: absence of GTP, 4° C. for 3 hr, read-out: KRAS (G12C) binding
Sequence (P01116 1-188 isoform P01116-2 G12C): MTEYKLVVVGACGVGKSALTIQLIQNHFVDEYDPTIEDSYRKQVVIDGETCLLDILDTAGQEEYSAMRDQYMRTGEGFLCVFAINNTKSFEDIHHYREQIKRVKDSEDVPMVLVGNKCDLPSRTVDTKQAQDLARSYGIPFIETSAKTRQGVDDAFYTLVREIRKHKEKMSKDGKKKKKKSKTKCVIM
pIC50: −log10 of the molar value.
For each of the molecules below, state its pIC50.

Can you look up the measured pIC50 of C=CC(=O)N1CCN(c2nc(OCC3CN(C(=O)C4CCN(Cc5ccc(-n6c(O)nnc6-c6cc(C(C)C)c(O)cc6O)cc5)CC4)C3)nc3c2CCN(c2cccc4cccc(Cl)c24)C3)C[C@@H]1CC#N for me? < 6.00

Can you look up the measured pIC50 of C=CC(=O)N1CCN(c2nc(OC[C@@H]3C[C@H](C(=O)N4CCN(Cc5ccc(-n6c(C(=O)NCC(F)(F)F)nnc6-c6cc(C(C)C)c(O)cc6O)cc5)CC4)CN3C)nc3c2CCN(c2cccc4cccc(Cl)c24)C3)C[C@@H]1CC#N for me? 6.00 to 7.00

Can you look up the measured pIC50 of C=CC(=O)N1CCN(c2nc(OCC3CCC(COCC(=O)N4CCN(Cc5ccc(-n6c(O)nnc6-c6cc(CC)c(O)cc6O)cc5)CC4)N3)nc3c2CCN(c2cccc4cccc(Cl)c24)C3)C[C@@H]1CC#N (stereo partly shown) for me? < 6.00

Can you look up the measured pIC50 of C=CC(=O)N1CCN(c2nc(NCCC(=O)NCc3ccc(CN4CCC(Cc5ccc(-n6c(C(=O)NCC(F)(F)F)nnc6-c6cc(C(C)C)c(O)cc6O)cc5)CC4)cc3)nc3c2CCN(c2cccc4ccccc24)C3)C[C@H]1CC#N for me? < 6.00

* * *

For each of the compounds below, state its IC50.
molecular target: HSP90a protein (Homo sapiens, UniProt P07900); construct: purchased BPS Bioscience 50298; test: HSP90α-binding fluorescent polarization (FP) assay, BODIPY-labeled RNK04010 probe; conditions: FP competition with RNK04010 (BODIPY-labeled), 5 nM, 300 min at 25° C.

Notebook entry, HSP90a protein (Homo sapiens, UniProt P07900) assay: IC50 of C=CC(=O)N1CCN(c2nc(OCC3CN(C(=O)c4ccc(-n5c(O)nnc5-c5cc(C(C)C)c(O)cc5O)cc4)C3)nc3c2CCN(c2cccc4cccc(Cl)c24)C3)C[C@@H]1CC#N = ? < 100 nM

Notebook entry, HSP90a protein (Homo sapiens, UniProt P07900) assay: IC50 of C=CC(=O)N1CCN(c2nc(NCCC(=O)N3CCC(CN4CCN(Cc5ccc(-n6c(O)nnc6-c6cc(C(C)C)c(O)cc6O)cc5)CC4)CC3)nc3c2CCN(c2cc(O)cc4ccccc24)C3)CC1 = ? < 100 nM

Notebook entry, HSP90a protein (Homo sapiens, UniProt P07900) assay: IC50 of C=CC(=O)N1CCN(c2nc(OC[C@@H]3CCN(C(=O)COc4ccc(Nc5cc(-n6nc(C(F)(F)F)c7c6CC(C)(C)CC7=O)ccc5C(N)=O)cc4)C3)nc3c2CCN(c2cccc4cccc(Cl)c24)C3)C[C@@H]1CC#N = ? > 1000 nM

Notebook entry, HSP90a protein (Homo sapiens, UniProt P07900) assay: IC50 of CCC(=O)N1CCN(c2nc(OCCN3CCN(C(=O)C4CCN(Cc5ccc(-n6c(C(=O)NCC(F)(F)F)nnc6-c6cc(C(C)C)c(O)cc6O)cc5)CC4)CC3)nc3c2CCN(c2cccc4cccc(Cl)c24)C3)C[C@@H]1CC#N = ? < 100 nM

Notebook entry, HSP90a protein (Homo sapiens, UniProt P07900) assay: IC50 of C=CC(=O)N1CCN(c2nc(OC[C@@H]3CCCN3C(=O)C3CCN(Cc4ccc(-n5c(O)nnc5-c5cc(C(C)C)c(O)cc5O)cc4)CC3)nc3c2CCN(c2cccc4cccc(C)c24)C3)C[C@@H]1CC#N = ? 100 to 1000 nM

Notebook entry, HSP90a protein (Homo sapiens, UniProt P07900) assay: IC50 of C=CC(=O)N1CCN(c2nc(NCCC(=O)N3CCN(c4ccc(-n5c(O)nnc5-c5cc(C(C)C)c(O)cc5O)cc4)CC3)nc3c2CCN(c2cccc4cccc(Cl)c24)C3)C[C@H]1CC#N = ? 100 to 1000 nM

Notebook entry, HSP90a protein (Homo sapiens, UniProt P07900) assay: IC50 of C=CC(=O)N1CCN(c2nc(NCCC(=O)NCc3ccc(-n4c(O)nnc4-c4cc(CC)c(O)cc4O)cc3F)nc3c2CCN(c2cccc4cccc(Cl)c24)C3)C[C@H]1CC#N = ? > 1000 nM

Notebook entry, HSP90a protein (Homo sapiens, UniProt P07900) assay: IC50 of C=CC(=O)N1CCN(c2nc(OC[C@@H]3C[C@H](C(=O)N[C@@H]4CCCN(Cc5ccc(-n6c(O)nnc6-c6cc(C(C)C)c(O)cc6O)cc5)C4)CN3C)nc3c2CCN(c2cccc4cccc(Cl)c24)C3)C[C@@H]1CC#N = ? < 100 nM

* * *

For each of the molecules below, state its pIC50.
target: KRAS(G12C) (Homo sapiens, UniProt P01116, G12C); test: KRAS(G12C)/SOS1 homogeneous time-resolved fluorescence (HTRF) assay; conditions: absence of GTP, 4° C. for 3 hr, read-out: KRAS (G12C) binding
pIC50: −log10 of the molar value.

Can you look up the measured pIC50 of C=CC(=O)N1CCN(c2nc(OCCN3CCC(C(=O)N4CCC(CN5CCC(Cc6ccc(-n7c(O)nnc7-c7cc(O)c(C(C)C)cc7O)cc6)CC5)CC4)CC3)nc3c2CCN(c2cccc4cccc(Cl)c24)C3)C[C@@H]1CC#N for me? 6.00 to 7.00

Can you look up the measured pIC50 of C=CC(=O)N1CCN(c2nc(OC[C@@H]3C[C@@H](OC(=O)N4CCN(Cc5ccc(-n6c(O)nnc6-c6cc(CC)c(O)cc6O)cc5)CC4)CN3C)nc3c2CCN(c2cccc4cccc(Cl)c24)C3)C[C@@H]1CC#N for me? < 6.00

Can you look up the measured pIC50 of C=CC(=O)N1CCN(c2nc(OC[C@@H]3C[C@H](C(=O)N4CCN(Cc5ccc(-n6c(O)nnc6-c6cc(C(C)C)c(O)cc6O)cc5)CC4)CN3C)nc3c2CCN(c2cccc4cccc(Cl)c24)C3)C[C@@H]1CC#N for me? > 7.00

Can you look up the measured pIC50 of C=CC(=O)N1CCN(c2nc(OC[C@@H]3CCN(CCC(=O)c4cc(C(C)C)c(O)cc4O)C3)nc3c2CCN(c2cccc4cccc(Cl)c24)C3)C[C@@H]1CC#N for me? 6.00 to 7.00

Can you look up the measured pIC50 of C=CC(=O)N1CCN(c2nc(OC[C@@H]3CC[C@H](CN4CCN(Cc5ccc(-n6c(O)nnc6-c6cc(C(C)C)c(O)cc6O)cc5)CC4)N3C)nc3c2CCN(c2cccc(C)c2C)C3)C[C@@H]1CC#N for me? > 7.00

Can you look up the measured pIC50 of C=CC(=O)N1CCN(c2nc(OCCN3CCC(C(=O)N4CCC(Cc5ccc(-n6c(O)nnc6-c6cc(C(C)C)c(O)cc6O)cc5)CC4)CC3)nc3c2CCN(c2cccc4cccc(Cl)c24)C3)C[C@@H]1CC#N for me? 6.00 to 7.00

Can you look up the measured pIC50 of C=CC(=O)N1CCN(c2nc(OC[C@@H]3C[C@H](NC(=O)C4CCN(Cc5ccc(-n6c(O)nnc6-c6cc(C(C)C)c(O)cc6O)cc5)CC4)CN3C)nc3c2CCN(c2cccc4cccc(Cl)c24)C3)C[C@@H]1CC#N for me? > 7.00
